Organism: Homo sapiens
Test: Ratio of Ki for human cloned CB1 receptor to Ki for human cloned CB2 receptor
# Y = Ratio Ki below 10 (exclusive); N = Ratio Ki at/above 10

A selection of reference data follows.
Cc1ccc(NC(=O)[C@@H]2C[C@@]3(C)CC[C@]2(C)O3)cc1S(=O)(=O)N1CCOCC1 ... Y
Cc1ccc(C(=O)N[C@H]2C(C)(C)[C@@H]3CC[C@@]2(C)C3)cc1S(=O)(=O)N1CCOCC1 ... N
Cc1ccc(-c2nc(CC(C)(C)C)c[nH]2)cc1S(=O)(=O)N1CCOCC1 ... N
Cc1ccc(-c2nc(C(C)(C)C)c[nH]2)cc1S(=O)(=O)N1CCOCC1 ... N
Cc1ccc(NC(=O)C2CCCCC2C)cc1S(=O)(=O)N1CCOCC1 (centres undefined) ... N
Cc1ccc(-c2n[nH]c(C(C)(C)C)n2)cc1S(=O)(=O)N1CCOCC1 ... Y

Request: Please state whether Ratio Ki is below 10 for Cc1ccc(C(=O)N[C@@H]2C(C)(C)[C@@H]3CC[C@@]2(C)C3)cc1S(=O)(=O)N1CCOCC1
Result: N

Request: I'd appreciate it if you could check whether Cc1ccc(-c2nnn(CC(C)(C)C)n2)cc1S(=O)(=O)N1CCOCC1 has Ratio Ki smaller than 10.
Result: Y

Request: Determine if Cc1ccc(NC(=O)C(C)(C(F)(F)F)C(F)(F)F)cc1S(=O)(=O)N1CCOCC1 shows Ratio Ki strictly lower than 10.
Result: N
